Recorded IC50, one value per entry.
# Test system: Aβ40 in conditioned medium of cells stably expressing Amyloid Precursor Protein (APP)
# protocol.summary: In vitro BACE cell-based assay (Aβ40 in conditioned medium, sandwich ELISA)
# applied.conditions: Homo sapiens, HEK293, average IC50; read-out: HEK cell assay
Unit nM implied. Number only.

// below: answered compounds
• CC1(C)C[C@H](c2cc3c(cn2)Oc2ccc(-c4cccnc4)cc2[C@@]32COC(N)=N2)CCO1 = 37.9
• NC1=N[C@@]2(CO1)c1cc(-c3cccnc3F)ccc1Oc1c2cc(C2=COCCC2)nc1F = 3060

Alright, here's another compound for you.
Report IC50 for `NC1=N[C@@]2(CO1)c1cc(C3=CCOCC3)cnc1Oc1ccc(-c3cccnc3F)c(F)c12` please.
457
